- System: Syrian golden hamsters (high-fat diet, hyperlipidemia model)
- assay.summary: In vivo lipid-lowering activity in high-fat diet golden hamsters
- Parameters: species or system Syrian golden hamster
- experimental.context: high-fat diet, abdominal (intraperitoneal) 30 mg/kg once a day for three weeks, serum
Item-by-item account of CHOL

compound	unit.tag	CHOL
COc1ccc2c(c1)c1c(n2CO)CN2CCc3cc(OC)c(OCc4ccc(F)cc4)cc3C2C1 (stereo not shown)	mmol/L	11.36
COc1ccc2[nH]c3c(c2c1)CC1c2cc(OCc4ccc(F)cc4)c(OC)cc2CCN1C3c1ccc(F)cc1 (stereo not shown)	mmol/L	14.92
COc1ccc2c(c1)c1c(n2CO)CN2CCc3cc(OCc4ccccc4)c(OC)cc3C2C1 (stereo not shown)	mmol/L	17.86
COc1ccc2c(c1)c1c(n2CO)CN2CCc3cc(OC)c(OCc4ccccc4)cc3C2C1 (stereo not shown)	mmol/L	9.75
